System: BxPC-3
assay.summary: Antiproliferation assay BxPC-3 (Assay 7)
Assay type: cell-based
assay.setup: Homo sapiens; BxPC-3 cells, 72 h, CellTiter-Glo; single determinations; read-out: IC50 Antiproli BxPC-3
observation.type: IC50 (µM)
Please state the figure in µM; there is no need to write the unit.

[in] Given CCc1c2c(nn1C)COCCCCn1c(C(=O)O)c(CCCOc3cccc4cc(F)ccc34)c3ccc(F)c-2c31 (single isomer, unassigned; enantiomer 1) [Example 22] , state its recorded IC50.
[out] 23.5

----------
assay.system: MCL-1 (Homo sapiens (Human), UniProt Q07820, K194A/K197A/R201A)
Sequence (Q07820 whole entry K194A/K197A/R201A, looked up): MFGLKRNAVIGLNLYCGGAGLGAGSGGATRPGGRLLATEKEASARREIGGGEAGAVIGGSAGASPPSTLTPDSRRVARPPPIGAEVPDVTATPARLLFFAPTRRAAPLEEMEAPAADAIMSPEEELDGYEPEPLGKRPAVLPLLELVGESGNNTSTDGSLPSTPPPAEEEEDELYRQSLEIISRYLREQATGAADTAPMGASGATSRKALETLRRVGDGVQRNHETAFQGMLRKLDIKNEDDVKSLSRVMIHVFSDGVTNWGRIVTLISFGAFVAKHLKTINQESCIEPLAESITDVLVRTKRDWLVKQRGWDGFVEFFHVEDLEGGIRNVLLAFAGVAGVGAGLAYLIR
assay.summary: Protein-protein interaction assay MCL-1/Noxa BH3 peptide (MCL-1 assay), TR-FRET
Type: binding
assay.setup: MCL-1/Noxa BH3 peptide TR-FRET; median
Description: Protein-Protein Interaction Assay: MCL-1/Noxa BH3 Peptide (MCL-1 Assay) The dose-dependent inhibition by the compounds described in this invention of the interaction between MCL-1 and the BH3 domain of Noxa (both human) was determined using a steady state binding competition assay with time-resolved fluorescence energy transfer (TR-FRET) readout. […]
observation.type: IC50 (nM)

Previously resolved entries follow.
* Cc1c2c(nn1C)CNCCCCn1c(C(=O)O)c(CCCOc3cccc4ccccc34)c3ccc(F)c-2c31 (single isomer, unassigned; enantiomer 2) [Example 49] | 40
* CCc1nn(C)c2c1-c1c(F)ccc3c(CCCOc4ccc(F)c5ccccc45)c(C(=O)O)n(c13)CCCCOC2 (racemic) [Example 41] | 2
* Cc1cc(OCCCc2c(C(=O)O)n3c4c(c(F)ccc24)-c2c(nn(C)c2C)COCCCC3)cc(C)c1Cl (racemic) [Example 20] | 1.5

a. CCc1nn(C)c2c1-c1c(F)ccc3c(CCCOc4ccc(F)c5ccccc45)c(C(=O)O)n(c13)CCCCOC2 (single isomer, unassigned; enantiomer 2) [Example 43]
b. Cc1c2c(nn1C)COCCCCn1c(C(=O)O)c(CCCOc3cccc4c3CCC4)c3ccc(F)c-2c31 (racemic) [Example 19]
[in] Short answer wanted: higher IC50, a or b ? // caller expects the label of the chosen entry
[out] a

----------
Test system: SUDHL10
assay.summary: Induction of cytotoxicity, SUDHL10 (Assay 6)
assay.setup: read-out: IC50 Cytotox SUDHL10 [M] (median), SUDHL10 cells, 5 h, CellTiter-Glo
observation.type: IC50

Previously resolved entries follow.
• CCc1nn(C)c2c1-c1c(F)ccc3c(CCCOc4ccc(F)c5ccccc45)c(C(=O)O)n(c13)CCCCOC2 (single isomer, unassigned; enantiomer 2) [Example 43] = > 3.3e-05 M
• Cc1c2c(nn1C)COCCCCn1c(C(=O)O)c(CCCOc3cccc4cc(F)ccc34)c3ccc(F)c-2c31 (single isomer, unassigned; enantiomer 1) [Example 13] = 8e-07 M

Field: next compound
[in] What reported IC50 corresponds to CCc1c2c(nn1C)COCCCCn1c(C(=O)O)c(CCCOc3cccc4ccccc34)c3ccc(F)c-2c31 (single isomer, unassigned; enantiomer 2) [Example 8] on SUDHL10?
[out] > 3.3e-05 M

----------
Test system: SUDHL10
assay.summary: Induction of caspase-3/7 activity, SUDHL10 (Assay 4)
Type: cell-based
assay.setup: SUDHL10 cells, 3 h, Caspase-Glo 3/7; median
observation.type: EC50 (nM)

- Cc1c2c(nn1C)CNCCCCn1c(C(=O)O)c(CCCOc3cccc4ccccc34)c3ccc(F)c-2c31 (single isomer, unassigned; enantiomer 1) [Example 48]: 2100

1. Cc1c2c(nn1C)COCCCCn1c(C(=O)O)c(CCCOc3cccc4cc(F)ccc34)c3ccc(F)c-2c31 (single isomer, unassigned; enantiomer 1) [Example 13]
2. CCc1c2c(nn1C)COCCCCn1c(C(=O)O)c(CCCOc3cccc4ccccc34)c3ccc(F)c-2c31 (single isomer, unassigned; enantiomer 1) [Example 7]
3. CCc1c2c(nn1C)COCCCCn1c(C(=O)O)c(CCCOc3cccc4cc(F)ccc34)c3ccc(F)c-2c31 (single isomer, unassigned; enantiomer 2) [Example 23]
[in] Reorder the items by EC50, least to greatest. Please list the labels according to the requested order.
[out] 1, 2, 3
(1: 680 nM, 2: 1000 nM, 3: 11000 nM)

----------
assay.system: MCL-1 (Homo sapiens (Human), UniProt Q07820, K194A/K197A/R201A)
assay.summary: Protein-protein interaction assay MCL-1/Noxa BH3 peptide (MCL-1 assay), TR-FRET
Format: binding
assay.setup: MCL-1/Noxa BH3 peptide TR-FRET; median
observation.type: IC50 (nM)

• Cc1nn(C)c2c1-c1c(F)ccc3c(CCCOc4cccc5cc(F)ccc45)c(C(=O)O)n(c13)CCCCOC2 (racemic) [Example 32] = 1.1

I. CCc1c2c(nn1C)COCCCCn1c(C(=O)O)c(CCCOc3cccc4cc(F)ccc34)c3ccc(F)c-2c31 (single isomer, unassigned; enantiomer 1) [Example 24]
II. CCc1c2c(nn1C)COCCCCn1c(C(=O)O)c(CCCOc3ccc(F)c4ccccc34)c3ccc(F)c-2c31 (racemic) [Example 26]
[in] Lowest IC50? choose I or II // caller expects the label of the chosen entry
[out] I
(I: 0.58 nM, II: 1.4 nM)

----------
assay.system: MCL-1 (Homo sapiens (Human), UniProt Q07820, K194A/K197A/R201A)
assay.summary: Protein-compound interaction assay (SPR assay, Assay 8)
Assay type: binding
assay.setup: immobilized MBP-MCL-1, 25° C., geometric mean, read-out: koff
Excerpt: Assay 8 Protein-Compound Interaction Assay (SPR Assay) The ability of the compounds described in this invention to bind to MCL-1 may be determined using surface plasmon resonance (SPR). This allows for the quantification of binding in terms of the equilibrium dissociation constant (KD [M]), as well as association and dissociation rate constants (kon [1/M 1/s] and koff [1/s], respectively). The measurements may be performed using Biacore® T200 or Biacore® S200 instruments (GE Healthcare). […]
observation.type: koff (s⁻¹)

A. CCc1nn(C)c2c1-c1c(F)ccc3c(CCCOc4cccc5cc(F)ccc45)c(C(=O)O)n(c13)CCCCOC2 (single isomer, unassigned; enantiomer 1)
B. Cc1c2c(nn1C)COCCCCn1c(C(=O)O)c(CCCOc3cccc4cc(F)ccc34)c3ccc(F)c-2c31 (single isomer, unassigned; enantiomer 1)
[in] Short answer wanted: higher koff, A or B ? // caller expects the label of the chosen entry
[out] A
(A: 0.021 s⁻¹, B: 0.0077 s⁻¹)

I. CCc1c2c(nn1C)COCCCCn1c(C(=O)O)c(CCCOc3cccc4ccccc34)c3ccc(F)c-2c31 (single isomer, unassigned; enantiomer 1)
II. CCc1c2c(nn1C)COCCCCn1c(C(=O)O)c(CCCOc3cccc4cc(F)ccc34)c3ccc(F)c-2c31 (single isomer, unassigned; enantiomer 1)
[in] Short answer wanted: higher koff, I or II ? // caller expects the label of the chosen entry
[out] I

a. Cc1c2c(nn1C)COCCCCn1c(C(=O)O)c(CCCOc3cccc4ccccc34)c3ccc(F)c-2c31 (single isomer, unassigned; enantiomer 1) [Example 3]
b. Cc1c2c(nn1C)COCCCCn1c(C(=O)O)c(CCCOc3cccc4ccccc34)c3ccc(F)c-2c31 (racemic) [Example 2]
[in] Lowest koff? choose a or b // caller expects the label of the chosen entry
[out] b

----------
Tested on: MV-4-11
assay.summary: Antiproliferation assay MV-4-11 (Assay 7)
Type: cell-based
assay.setup: MV-4-11 cells, 72 h, CellTiter-Glo; single determinations; listed as 09; read-out: IC50 Antiproli MV-4-11
observation.type: IC50 (µM)
Please state the figure in µM; there is no need to write the unit.

[in] Given Cc1nn(C)c2c1-c1c(F)ccc3c(CCCOc4cccc5ccccc45)c(C(=O)O)n(c13)C/C=C\COC2 (racemic) , state its recorded IC50.
[out] 6.04

----------
System: MV-4-11
assay.summary: Antiproliferation assay MV-4-11 (Assay 7)
Assay type: cell-based
assay.setup: MV-4-11 cells, 72 h, CellTiter-Glo; single determinations; listed as 01; read-out: IC50 Antiproli MV-4-11
observation.type: pIC50
Just so you know, pIC50 here is -log10 of the concentration in molar units; reply with that number alone.

[in] Given Cc1c2c(nn1C)COC/C=C\Cn1c(C(=O)O)c(CCCOc3cccc4ccccc34)c3ccc(F)c-2c31 (racemic) [Example 1] , state its recorded pIC50.
[out] 4.85

----------
assay.system: MCL-1 (Homo sapiens (Human), UniProt Q07820, K194A/K197A/R201A)
assay.summary: Protein-protein interaction assay MCL-1/Noxa BH3 peptide (MCL-1 assay), TR-FRET
Type: binding
assay.setup: MCL-1/Noxa BH3 peptide TR-FRET; median
observation.type: IC50 (nM)

Previously resolved entries follow.
- CCc1c2c(nn1C)COCCCCn1c(C(=O)O)c(CCCOc3cccc4ccccc34)c3ccc(F)c-2c31 (single isomer, unassigned; enantiomer 1) [Example 7]: 0.97
- CCc1nn(C)c2c1-c1c(F)ccc3c(CCCOc4cccc5cc(F)ccc45)c(C(=O)O)n(c13)CCCCOC2 (single isomer, unassigned; enantiomer 2) [Example 40]: 40
- CCc1nn(C)c2c1-c1c(F)ccc3c(CCCOc4cccc5ccccc45)c(C(=O)O)n(c13)CCCCOC2 (racemic): 1.2
- Cc1nn(C)c2c1-c1c(F)ccc3c(CCCOc4ccc(F)c5ccccc45)c(C(=O)O)n(c13)CCCCOC2 (racemic): 1.7
- CCc1nn(C)c2c1-c1c(F)ccc3c(CCCOc4cccc5c4CCCC5)c(C(=O)O)n(c13)CCCCOC2 (racemic): 1.7

1. Cc1nn(C)c2c1-c1c(F)ccc3c(CCCOc4cccc5ccccc45)c(C(=O)O)n(c13)C/C=C\COC2 (racemic)
2. Cc1c2c(nn1C)COCCCCn1c(C(=O)O)c(CCCOc3cccc4c3CCCC4)c3ccc(F)c-2c31 (racemic)
3. Cc1c2c(nn1C)COCCCCn1c(C(=O)O)c(CCCOc3cccc4cc(F)ccc34)c3ccc(F)c-2c31 (single isomer, unassigned; enantiomer 2) [Example 14]
4. CCc1nn(C)c2c1-c1c(F)ccc3c(CCCOc4cccc5cc(F)ccc45)c(C(=O)O)n(c13)CCCCOC2 (single isomer, unassigned; enantiomer 1) [Example 39]
5. Cc1c2c(nn1C)COCCCCn1c(C(=O)O)c(CCCOc3cccc4ccccc34)c3ccc(F)c-2c31 (single isomer, unassigned; enantiomer 2) [Example 4]
[in] Reorder the items by IC50, least to greatest. Please list the labels according to the requested order.
[out] 4, 2, 1, 3, 5
(4: 0.8 nM, 2: 1.6 nM, 1: 2.4 nM, 3: 17 nM, 5: 65 nM)

I. CCc1nn(C)c2c1-c1c(F)ccc3c(CCCOc4cccc5c4CCC5)c(C(=O)O)n(c13)CCCCOC2 (racemic)
II. CCc1c2c(nn1C)COC/C=C\Cn1c(C(=O)O)c(CCCOc3cccc4ccccc34)c3ccc(F)c-2c31 (racemic)
[in] Lowest IC50? choose I or II // caller expects the label of the chosen entry
[out] I

These measurements were taken from patent US11286263B2.
